Below, each entry is listed alongside its reported IC50.
Biological target: AhR (Homo sapiens)
Sequence (P35869 11-848): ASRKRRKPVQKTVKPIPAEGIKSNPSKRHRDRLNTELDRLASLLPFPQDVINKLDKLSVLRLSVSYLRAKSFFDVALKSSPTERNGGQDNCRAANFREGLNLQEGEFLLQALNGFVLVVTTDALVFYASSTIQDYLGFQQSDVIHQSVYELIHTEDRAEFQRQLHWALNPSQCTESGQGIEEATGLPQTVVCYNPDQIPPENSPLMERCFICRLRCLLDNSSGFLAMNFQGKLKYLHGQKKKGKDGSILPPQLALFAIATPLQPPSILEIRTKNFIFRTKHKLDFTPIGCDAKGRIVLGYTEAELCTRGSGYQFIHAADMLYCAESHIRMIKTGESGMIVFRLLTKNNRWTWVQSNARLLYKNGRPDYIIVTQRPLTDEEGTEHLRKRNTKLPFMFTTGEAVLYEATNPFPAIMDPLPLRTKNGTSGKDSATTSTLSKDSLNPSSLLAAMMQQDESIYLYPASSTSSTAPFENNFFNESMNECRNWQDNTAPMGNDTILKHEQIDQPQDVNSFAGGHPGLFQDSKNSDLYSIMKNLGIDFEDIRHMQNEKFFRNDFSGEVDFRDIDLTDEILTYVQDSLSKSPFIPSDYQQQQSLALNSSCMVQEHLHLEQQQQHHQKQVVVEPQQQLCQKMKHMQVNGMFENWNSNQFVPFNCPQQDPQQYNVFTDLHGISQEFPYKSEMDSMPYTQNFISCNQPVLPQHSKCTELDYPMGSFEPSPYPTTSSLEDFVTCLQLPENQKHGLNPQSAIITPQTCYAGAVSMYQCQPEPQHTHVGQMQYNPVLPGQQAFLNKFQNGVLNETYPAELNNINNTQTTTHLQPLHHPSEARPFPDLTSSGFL
Test: AhR inhibitory activity experiment, in vitro assay 1: HepG2-Lucia AhR cells, Lucia luciferase reporter (QUANTI-Luc)
Settings: 24 hours incubation at 37° C., Lucia luciferase in supernatant, read-out: AhR inhibitory activity C50

line.notation | assay.system | result
Cn1cc(-c2nc(C(=O)N[C@H]3CCCc4ncccc43)cc(-c3ccc(Cl)cc3)n2)cn1 | AhR (Homo sapiens) | < 0.05 µM
C[C@H](NC(=O)c1cc(-c2ccc(C(F)(F)F)cc2)nc(-c2cnn(C)c2)n1)c1ccnc(F)c1 | AhR (Homo sapiens) | < 0.05 µM
C[C@H](NC(=O)c1cc(-c2ccc(Cl)cc2)nc(-c2cnn(C)c2)n1)c1cnn(C)c1 | AhR (Homo sapiens) | < 0.05 µM

Now take the following compound into account.
Ask | Fill blank: measured IC50 of the compound C[C@H](NC(=O)c1cc(-c2ccc(Cl)cc2)nc(-c2cnn(C)c2)n1)c1ccc2c(c1)OCO2 is ____.
Reply | 0.05 to 0.2 µM

###

Molecular target: AhR (Homo sapiens)
Sequence (P35869 11-848): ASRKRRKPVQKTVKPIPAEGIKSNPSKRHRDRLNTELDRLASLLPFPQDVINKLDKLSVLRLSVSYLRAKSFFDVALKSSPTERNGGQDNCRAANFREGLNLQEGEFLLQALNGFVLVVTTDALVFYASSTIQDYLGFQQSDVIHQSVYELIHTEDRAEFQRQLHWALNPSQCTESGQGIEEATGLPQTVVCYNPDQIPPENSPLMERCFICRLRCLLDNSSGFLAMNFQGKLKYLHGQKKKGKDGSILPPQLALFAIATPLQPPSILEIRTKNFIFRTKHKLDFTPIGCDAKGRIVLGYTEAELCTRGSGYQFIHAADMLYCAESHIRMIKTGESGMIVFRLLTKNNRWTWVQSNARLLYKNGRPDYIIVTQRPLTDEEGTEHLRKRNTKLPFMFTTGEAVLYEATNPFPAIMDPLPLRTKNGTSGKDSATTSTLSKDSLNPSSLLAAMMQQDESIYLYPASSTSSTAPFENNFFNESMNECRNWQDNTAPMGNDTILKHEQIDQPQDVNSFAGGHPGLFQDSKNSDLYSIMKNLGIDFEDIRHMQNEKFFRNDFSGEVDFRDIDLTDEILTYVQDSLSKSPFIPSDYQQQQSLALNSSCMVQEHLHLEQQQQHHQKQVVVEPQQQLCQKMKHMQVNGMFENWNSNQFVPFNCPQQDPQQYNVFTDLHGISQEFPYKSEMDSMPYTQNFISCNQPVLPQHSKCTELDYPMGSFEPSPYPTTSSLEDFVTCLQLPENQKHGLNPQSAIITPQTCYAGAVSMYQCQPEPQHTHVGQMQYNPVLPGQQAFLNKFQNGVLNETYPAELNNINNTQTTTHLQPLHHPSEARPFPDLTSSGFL
Assay: AhR inhibitory activity experiment, in vitro assay 1: HepG2-Lucia AhR cells, Lucia luciferase reporter (QUANTI-Luc)
Conditions: 24 hours incubation at 37° C., Lucia luciferase in supernatant, read-out: AhR inhibitory activity C50
Below, each entry is listed alongside its reported IC50.

compound | assay.system | IC50
CNC(=O)c1ccc([C@H](C)NC(=O)c2cc(-c3ccc(Cl)cc3)nc(-c3cnn(C)c3)n2)cc1F [Compound 52] | AhR (Homo sapiens) | < 50 nM
C[C@H](NC(=O)c1cc(-c2ccc(Cl)cc2)nc(-c2cnn(C)c2)n1)c1ccc(Cl)c(F)c1 [Compound 13] | AhR (Homo sapiens) | < 50 nM

Now take the following compound into account.
Ask | Fill blank: measured IC50 of the compound COc1ccc([C@H](C)NC(=O)c2cc(-c3ccc(Cl)cc3)nc(-c3cnn(C)c3)n2)cc1F [Compound 8] is ____.
Reply | < 50 nM

###

Target: AhR (Homo sapiens, UniProt P35869)
Sequence (P35869 11-848): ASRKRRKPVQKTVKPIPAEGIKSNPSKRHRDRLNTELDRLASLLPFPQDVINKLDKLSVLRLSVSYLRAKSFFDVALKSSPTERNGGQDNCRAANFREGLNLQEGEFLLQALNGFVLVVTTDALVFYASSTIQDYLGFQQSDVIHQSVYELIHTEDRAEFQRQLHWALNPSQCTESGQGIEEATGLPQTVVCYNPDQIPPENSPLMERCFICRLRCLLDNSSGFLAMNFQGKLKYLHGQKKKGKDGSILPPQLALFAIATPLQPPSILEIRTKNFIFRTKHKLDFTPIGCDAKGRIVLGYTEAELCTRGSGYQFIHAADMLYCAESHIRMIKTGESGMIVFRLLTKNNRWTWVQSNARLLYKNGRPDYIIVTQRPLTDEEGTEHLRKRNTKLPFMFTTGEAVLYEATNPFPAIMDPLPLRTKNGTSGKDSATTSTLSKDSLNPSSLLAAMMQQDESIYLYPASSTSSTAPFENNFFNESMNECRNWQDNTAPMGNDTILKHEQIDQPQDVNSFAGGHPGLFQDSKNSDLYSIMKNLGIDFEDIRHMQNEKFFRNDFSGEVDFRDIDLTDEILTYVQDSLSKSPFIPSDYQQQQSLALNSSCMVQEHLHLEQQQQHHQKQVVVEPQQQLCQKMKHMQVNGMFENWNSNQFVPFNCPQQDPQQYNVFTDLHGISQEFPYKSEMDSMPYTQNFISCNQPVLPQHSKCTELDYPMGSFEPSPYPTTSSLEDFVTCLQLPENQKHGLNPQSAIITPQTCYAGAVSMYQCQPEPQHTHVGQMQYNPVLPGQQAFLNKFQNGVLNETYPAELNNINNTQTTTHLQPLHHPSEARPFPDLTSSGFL
Experiment: AhR inhibitory activity experiment, in vitro assay 1: HepG2-Lucia AhR cells, Lucia luciferase reporter (QUANTI-Luc)
Details: 24 hours incubation at 37° C., Lucia luciferase in supernatant, read-out: AhR inhibitory activity C50
Below, each entry is listed alongside its reported IC50.

Some solved cases for reference:
molecule | assay.system | measured.attribute | result
COc1cc([C@H](C)NC(=O)c2cc(-c3ccc(Cl)cc3)nc(-c3cnn(C)c3)n2)ccc1F [Compound 30] | AhR (Homo sapiens, UniProt P35869) | IC50 | < 50 nM
Cn1cc(-c2nc(C(=O)NCCc3c[nH]c4ccccc34)cc(-c3ccc(Cl)cc3)n2)cn1 [Compound 6] | AhR (Homo sapiens, UniProt P35869) | IC50 | > 1000 nM

Ask | Fill blank: measured IC50 of the molecule C[C@H](NC(=O)c1cc(-c2ccc(Cl)cc2)nc(-c2cnn(C)c2)n1)c1ccc(O)c(F)c1 [Compound 11] is ____.
Reply | > 1000 nM

Ask | Fill blank: measured IC50 of the molecule C[C@H](NC(=O)c1cc(-c2ccc(C#N)cc2)nc(-c2cnn(C)c2)n1)c1ccnc(F)c1 [Compound 58] is ____.
Reply | 50 to 200 nM

Ask | Fill blank: measured IC50 of the molecule Cn1cc(-c2nc(C(=O)NCC3(c4ccc(Cl)cc4)CC3)cc(-c3ccc(Cl)cc3)n2)cn1 [Compound 22] is ____.
Reply | > 1000 nM

Ask | Fill blank: measured IC50 of the molecule Cn1cc(-c2nc(C(=O)NC3(C)CCN(CC(F)(F)F)CC3)cc(-c3ccc(Cl)cc3)n2)cn1 [Compound 44] is ____.
Reply | < 50 nM

Ask | Fill blank: measured IC50 of the molecule C[C@H](NC(=O)c1cc(-c2ccc(Cl)cc2)nc(-c2cnn(C)c2)n1)c1ccncc1 [Compound 4] is ____.
Reply | < 50 nM

Ask | Fill blank: measured IC50 of the molecule Cn1cc(-c2nc(C(=O)NC3(C)CCN(CC#N)CC3)cc(-c3ccc(Cl)cc3)n2)cn1 [Compound 46] is ____.
Reply | < 50 nM
